Target: T1, human CCR8 (human, UniProt P51685 1-355)
T1 construct: whole, on cells; In the β-arrestin assay CCR8 is fused to the ProLink (PK) tag; also called hCCR8; CHO-K1-human CCR8
T1 sequence (P51685 whole entry, the tested form may be a part): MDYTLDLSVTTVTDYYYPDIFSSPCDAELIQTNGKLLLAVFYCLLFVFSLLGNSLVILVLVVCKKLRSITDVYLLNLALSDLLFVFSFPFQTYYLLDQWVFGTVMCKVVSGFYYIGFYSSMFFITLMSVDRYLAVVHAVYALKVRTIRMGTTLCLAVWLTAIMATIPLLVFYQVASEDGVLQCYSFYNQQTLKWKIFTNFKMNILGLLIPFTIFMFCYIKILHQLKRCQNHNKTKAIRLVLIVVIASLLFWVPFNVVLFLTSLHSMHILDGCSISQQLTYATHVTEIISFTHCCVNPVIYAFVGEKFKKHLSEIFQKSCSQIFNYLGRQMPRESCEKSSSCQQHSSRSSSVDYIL
Test: FACS on CHO-K1-human CCR8 cells
Listing of recorded Max MFI by entry.
test-readout: Max MFI (MFI)

* 204A2G12 (antibody, V domains shown, Murine hybridoma antibody) VH: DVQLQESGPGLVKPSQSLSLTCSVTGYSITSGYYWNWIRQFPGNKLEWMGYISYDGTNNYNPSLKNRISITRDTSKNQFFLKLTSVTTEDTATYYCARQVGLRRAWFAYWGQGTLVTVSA VL: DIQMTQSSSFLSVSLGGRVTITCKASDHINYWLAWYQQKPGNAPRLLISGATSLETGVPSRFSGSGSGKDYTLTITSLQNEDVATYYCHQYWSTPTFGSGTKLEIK | 10200
* 262C2G7 (antibody, V domains shown, Murine hybridoma antibody) VH: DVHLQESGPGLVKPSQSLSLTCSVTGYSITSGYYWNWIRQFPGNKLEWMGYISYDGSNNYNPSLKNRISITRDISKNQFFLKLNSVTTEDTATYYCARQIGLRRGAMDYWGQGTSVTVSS VL: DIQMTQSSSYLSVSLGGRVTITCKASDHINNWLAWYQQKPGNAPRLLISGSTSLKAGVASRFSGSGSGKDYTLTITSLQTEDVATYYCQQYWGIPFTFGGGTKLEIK | 86400
